# protocol_description: Example 18 Part 2: multiple dose PK (20 mg QID) of 3,4-DAP and 3-N-acetyl metabolite in slow and fast acetylators
# Assay type: in vivo, human
# test_context: both sexes, human, plasma, oral, 20 mg, Day 1, fast acetylators, Dose 4 interval, 20 mg QID, arith. mean; read-out: Vz/F
experimental_readout: Vd/F (L)
Answer format: numeric, L implied, no suffix.

Consider CC(=O)Nc1cnccc1N [3-N-acetyl amifampridine, N-(4-aminopyridin-3-yl)acetamide] . Its measured Vd/F is 40

###

# protocol_description: Example 18 Part 2: multiple dose PK (20 mg QID) of 3,4-DAP and 3-N-acetyl metabolite in slow and fast acetylators
# Assay type: in vivo, human
# test_context: both sexes, human, plasma, oral, 20 mg, Day 3, Dose 3, fast acetylators, 20 mg QID; read-out: Mean Tmax
# Protocol: The following method was used to analyze concentrations of 3,4-diaminopyridine and N-(4-aminopyridin-3-yl)acetamide in plasma and urine samples for the experiments in Example 18. […] Samples were analyzed by using HPLC with positive ion electrospray MS/MS detection. […] The LC/MS/MS method was validated to quantify 3,4-DAP in human plasma in the linear calibration range of 0.500 to 500 ng/mL and from 1.00 to 1000 ng/mL for the 3-N-acetyl metabolite. […]
experimental_readout: Tmax (min)
Answer format: numeric, min implied, no suffix.

Consider "Nc1ccncc1N" . Its measured Tmax is 31.9

###

# protocol_description: Example 18 Part 2: multiple dose PK (20 mg QID) of 3,4-DAP and 3-N-acetyl metabolite in slow and fast acetylators
# Format: in vivo, human
# test_context: both sexes, human, plasma, oral, 20 mg, Day 3, Dose 1, fast acetylators, 20 mg QID; read-out: Mean Vz/F
experimental_readout: Vd/F

Consider "Nc1ccncc1N" . Its measured Vd/F is 1390 L

###

# protocol_description: Example 18 Part 2: multiple dose PK (20 mg QID) of 3,4-DAP and 3-N-acetyl metabolite in slow and fast acetylators
# Type: in vivo, human
# test_context: both sexes, human, plasma, oral, 20 mg, Day 3, Dose 4, slow acetylators, 20 mg QID; read-out: Mean t1/2 (converted)
experimental_readout: half-life (h)
Answer format: numeric, h implied, no suffix.

Consider "Nc1ccncc1N" . Its measured half-life is 3.56

###

# protocol_description: Example 18 Part 2: multiple dose PK (20 mg QID) of 3,4-DAP and 3-N-acetyl metabolite in slow and fast acetylators
# Type: in vivo, human
# test_context: both sexes, human, plasma, oral, 20 mg, Day 4, 20 mg single dose, fast acetylators; read-out: Mean Cmax
experimental_readout: Cmax (ng/mL)
Answer format: numeric, ng/mL implied, no suffix.

Consider "Nc1ccncc1N" . Its measured Cmax is 13.6

###

# protocol_description: Example 18 Part 2: multiple dose PK (20 mg QID) of 3,4-DAP and 3-N-acetyl metabolite in slow and fast acetylators
# Assay type: in vivo, human
# test_context: both sexes, human, plasma, oral, 20 mg, Day 1, slow acetylators, Dose 3 interval, 20 mg QID, arith. mean; read-out: AUC0-4
experimental_readout: AUC(0-t) (ng·h/mL)
Answer format: numeric, ng·h/mL implied, no suffix.

Consider CC(=O)Nc1cnccc1N [3-N-acetyl amifampridine, N-(4-aminopyridin-3-yl)acetamide] . Its measured AUC(0-t) is 759
